Entries and their activity change, negative = inhibition values follow.
test: qHTS Assay for Lipid Storage Modulators (AID 1519); conditions: Drosophila S3 cells, BODIPY lipid droplet/cell ratio, laser cytometry; at 57.5 µM (top of the series); cells loaded with oleic acid; also: % is scaled to controls: 0 for no effect and ±100 for the full control effect
Records with an inconclusive call do not appear.
Recorded Endpoint: activity change, negative = inhibition (%)

| Mol Smiles | Quantitative Result |
| --- | --- |
| O=c1c(-c2cc(O)c(O)c(O)c2)coc2cc(O)c(O)c(O)c12 | 15.6 |
| c1ccc2oc(C3=NCCN3)cc2c1 | -5.14 |
| N[C@@H]1CCN(O)C1=O | 4.58 |
| C[C@](N)(C(=O)O)c1ccc(-c2nn[nH]n2)cc1 | 7.08 |
